- Stated Conditions: in n-propanol, 298.15 K
Recorded Metric: solubility (mole fraction)
Quick one: just the number, no unit, thanks!

Entry O=C(Oc1ccccc1)c1ccccc1O ; solubility (mole fraction) = 0.152

---

- Stated Conditions: in methanol, 303.15 K
Recorded Metric: solubility (mole fraction)
// keep it numeric: no unit symbol after the value

solubility (mole fraction) for O=C(Oc1ccccc1)c1ccccc1O is 0.274

---

- Stated Conditions: in ethanol, 288.15 K
Recorded Metric: solubility (mole fraction)
// return just the number, without any unit appended

Summary for this compound, O=C(Oc1ccccc1)c1ccccc1O : solubility (mole fraction) is 0.0361

---

- Stated Conditions: in n-propanol, 308.15 K
Recorded Metric: solubility (mole fraction)
The answer should be written as a number, with no unit following it.

Consider O=C(Oc1ccccc1)c1ccccc1O . Its measured solubility (mole fraction) is 0.718
